Test system: 463943-066-T-J2-PDC complex spheroid growth
Assay: Anticancer human tumor 463943-066-T-J2-PDC patient-derived colon adenocarcinoma cell line growth inhibition [Asc]
Conditions: second compound 0.0316 µM; first compound 10 µM; stronger effect = lower value
Description: Multicellular complex tumor spheroid response to apoptosis pathway targeting inhibitors Alrizomadlin, Pelcitoclax, and Dasminapant in combination with a variety of drugs and investigational agents in selected tumor cell lines […] Compounds. […] If the clinical Cmax for an agent had not been determined, the highest concentration tested was 10 microM. […]
Reported viability, T/C by item:
READOUT: viability, T/C (%)

- COMPOUND: "C=C(F)C(=O)N1CCN(c2nc(OCC3CCCN3C)nc3c2CCN(c2cccc4cccc(Cl)c24)C3)CC1CC#N (configuration not stated) + Cc1c(S(C)(=O)=O)c(-c2cc(F)cc(N3CCN(c4ccc(NS(=O)(=O)c5ccc(NC(CCN6CCC(C(=O)OCCCP(=O)(O)O)CC6)CSc6ccccc6)c(S(=O)(=O)C(F)(F)F)c5)cc4)CC3)c2)c(-c2ccc(Cl)cc2)n1C(C)C"
  VALUE: 7.35
- COMPOUND: "O=C(c1cc(Cc2n[nH]c(=O)c3ccccc23)ccc1F)N1CCN(C(=O)C2CC2)CC1 + Cc1c(S(C)(=O)=O)c(-c2cc(F)cc(N3CCN(c4ccc(NS(=O)(=O)c5ccc(NC(CCN6CCC(C(=O)OCCCP(=O)(O)O)CC6)CSc6ccccc6)c(S(=O)(=O)C(F)(F)F)c5)cc4)CC3)c2)c(-c2ccc(Cl)cc2)n1C(C)C"
  VALUE: 86.9

----------
Reported viability, T/C by item:
Tested on: 463943-066-T-J2-PDC complex spheroid growth
Experiment: Anticancer human tumor 463943-066-T-J2-PDC cell line growth inhibition [Asc];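 also: compound exposure lasted 7 days; 100% = DMSO vehicle control wells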
Settings: second compound 0.949 µM; first compound 0.316 µM; stronger effect = lower value
Text: Multicellular complex tumor spheroid response to apoptosis pathway targeting inhibitors Alrizomadlin, Pelcitoclax, and Dasminapant in combination with a variety of drugs and investigational agents in selected tumor cell lines […] Compounds. […] If the clinical Cmax for an agent had not been determined, the highest concentration tested was 10 microM. […]

- MOLECULE: "CNC(C)C(=O)NC1CN(S(=O)(=O)c2cccc(S(=O)(=O)N3CCC4CCC(C(=O)NC(c5ccccc5)c5ccccc5)N4C(=O)C(NC(=O)C(C)NC)C3)c2)CCC2CCC(C(=O)NC(c3ccccc3)c3ccccc3)N2C1=O (stereo unspecified) + CCN1C(C(=O)NC23CCC(C(=O)O)(CC2)CC3)C(c2cccc(Cl)c2F)C2(C(=O)Nc3cc(Cl)ccc32)C12CCCCC2"
  SYSTEM: "463943-066-T-J2-PDC complex spheroid growth"
  viability, T/C [%]: 76.8
- MOLECULE: "C#Cc1c(F)ccc2cc(O)cc(-c3ncc4c(N5CC6CCC(C5)N6)nc(OCC56CCCN5CC(F)C6)nc4c3F)c12 (stereo unspecified) + CCN1C(C(=O)NC23CCC(C(=O)O)(CC2)CC3)C(c2cccc(Cl)c2F)C2(C(=O)Nc3cc(Cl)ccc32)C12CCCCC2"
  SYSTEM: "463943-066-T-J2-PDC complex spheroid growth"
  viability, T/C [%]: 78.8
- MOLECULE: "C=CC(=O)N1CCN(c2nc(=O)n(-c3c(C)ccnc3C(C)C)c3nc(-c4c(O)cccc4F)c(F)cc23)C(C)C1 (stereo unspecified) + CCN1C(C(=O)NC23CCC(C(=O)O)(CC2)CC3)C(c2cccc(Cl)c2F)C2(C(=O)Nc3cc(Cl)ccc32)C12CCCCC2"
  SYSTEM: "463943-066-T-J2-PDC complex spheroid growth"
  viability, T/C [%]: 74
- MOLECULE: "CCN1CCN(Cc2ccc(Nc3ncc(F)c(-c4cc(F)c5nc(C)n(C(C)C)c5c4)n3)nc2)CC1 + CCN1C(C(=O)NC23CCC(C(=O)O)(CC2)CC3)C(c2cccc(Cl)c2F)C2(C(=O)Nc3cc(Cl)ccc32)C12CCCCC2"
  SYSTEM: "463943-066-T-J2-PDC complex spheroid growth"
  viability, T/C [%]: 81.5
- MOLECULE: "O=C(c1ccc(F)c(F)c1Nc1ccc(I)cc1F)N1CC(O)([C@@H]2CCCCN2)C1 + CCN1C(C(=O)NC23CCC(C(=O)O)(CC2)CC3)C(c2cccc(Cl)c2F)C2(C(=O)Nc3cc(Cl)ccc32)C12CCCCC2"
  SYSTEM: "463943-066-T-J2-PDC complex spheroid growth"
  viability, T/C [%]: 39.5
- MOLECULE: "O=C(c1cc(Cc2n[nH]c(=O)c3ccccc23)ccc1F)N1CCN(C(=O)C2CC2)CC1 + CCN1C(C(=O)NC23CCC(C(=O)O)(CC2)CC3)C(c2cccc(Cl)c2F)C2(C(=O)Nc3cc(Cl)ccc32)C12CCCCC2"
  SYSTEM: "463943-066-T-J2-PDC complex spheroid growth"
  viability, T/C [%]: 74.3
